Below, each of the compounds is paired with its reported pEC50 value.
testedOn: human ghrelin receptor (hGHS-R1a) (Homo sapiens, UniProt Q92847)
Sequence (Q92847 whole entry): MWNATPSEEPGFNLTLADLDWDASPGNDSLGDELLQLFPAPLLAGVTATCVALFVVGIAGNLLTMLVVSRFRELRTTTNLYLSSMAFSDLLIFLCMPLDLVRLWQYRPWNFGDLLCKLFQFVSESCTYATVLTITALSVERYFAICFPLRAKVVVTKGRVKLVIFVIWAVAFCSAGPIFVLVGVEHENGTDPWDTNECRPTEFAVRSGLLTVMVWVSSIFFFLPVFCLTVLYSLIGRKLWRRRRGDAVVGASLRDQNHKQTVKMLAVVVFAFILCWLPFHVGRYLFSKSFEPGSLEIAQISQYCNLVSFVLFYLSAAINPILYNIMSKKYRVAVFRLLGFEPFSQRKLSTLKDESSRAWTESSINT
assayProcedure: Aequorin functional assay (ghrelin receptor), CHO-K1 cells co-expressing Gα16 and aequorin
measurementSetup: functional (agonist) activity, standard method; TFA salts unless otherwise noted
pEC50: −log10 of the molar value.

Please review the entries below; each comes with its answer.
{"compound": "CC[C@H](C)[C@@H]1NCCOc2ccccc2CCCNC(=O)[C@@H](Cc2ccc3ccccc3c2)NC(=O)[C@@H](C)N(C)C1=O", "testedOn": "human ghrelin receptor (hGHS-R1a) (Homo sapiens, UniProt Q92847)", "pEC50": "7.00 to 9.00"}
{"compound": "CC(C)C[C@@H]1NCCOc2ccccc2CCCNC(=O)[C@H](Cc2ccccc2)NC(=O)C2(CC2)NC1=O", "testedOn": "human ghrelin receptor (hGHS-R1a) (Homo sapiens, UniProt Q92847)", "pEC50": "6.00 to 7.00"}
{"compound": "CCC(C)C1NCCOc2ccccc2CCCNC(=O)C(Cc2ccc(OC)cc2)NC(=O)C(C)N(C)C1=O (stereo not shown)", "testedOn": "human ghrelin receptor (hGHS-R1a) (Homo sapiens, UniProt Q92847)", "pEC50": "7.00 to 9.00"}
{"compound": "CCC(C)C1NCCOc2ccccc2CCCNC(=O)C(Cc2ccc(O)cc2)NC(=O)C(C)N(C)C1=O (stereo not shown)", "testedOn": "human ghrelin receptor (hGHS-R1a) (Homo sapiens, UniProt Q92847)", "pEC50": "7.00 to 9.00"}

// below: pEC50 requested for another compound
Query: Look at this compound and give its reported pEC50. CCC[C@@H]1NCCOc2ccccc2CCCNC(=O)[C@@H](Cc2ccccc2)NC(=O)CN(CC)C1=O
Result: 6.00 to 7.00

Where do these numbers come from? They come from patent US20060025566A1.
